Assignment: determine reported Kd for the given binders.
biological target: YTHDC1 YTH domain (UniProt Q96MU7 345-509); experiment: MST
Give bare numbers, in µM.

AAAGGACGUGG (ssRNA, m6A at position 6) [probe 1]; 0.39

Request: Using known records, supply Kd for AAAGGACGUGG (ssRNA) [probe 2]
Response: 16.9

Data provenance is paper PMC6684389.
